# TARGET: Recombinant human PKCα (Homo sapiens)
# PROTOCOL_NOTES: Assay of PKCα catalytic activity in vitro
# REPORTED_CONDITIONS: reversible binding conditions; average of two or more independent experiments (± s.d.); read-out: IC50 (analogue concentration producing 50% inhibition of PKCα activity)
# Method: Assay of PKCα Catalytic Activity In Vitro Recombinant human PKCα (>95% pure) (PanVera Corp., Madison, Wis.) was used for testing DECA analogues in vitro. Total PKCα catalytic activity (36 ng protein) and the indicated concentration of DECA analogue was measured in triplicate in the presence of activating cofactors (10 μg phosphatidylserine, 0.5 mM Ca^2+) by the transfer of ^32P from [γ-^32P]-ATP to the modified pseudosubstrate peptide (RFARKGSLRQKNV), as described elsewhere^1. […]
pIC50: −log10 of the molar value.
Would you please tag the item YES when its pIC50 is 5 or above, and NO when it is below?

Q: Has CCCCCCCCCC[n+]1c(C)cc(N)c2ccccc21 [Compound 2, N-Decyl-4-aminoquinaldinium iodide] a recorded pIC50 greater than or equal to 5?
Ans: NO

Q: Has Cc1cc(N)c2ccccc2[n+]1C [Compound 3] a recorded pIC50 greater than or equal to 5?
Ans: NO

Q: Has Cc1cc(N)c2ccccc2[n+]1CCCCCCCC[n+]1c(C)cc(N)c2ccccc21 [Compound 1b] a recorded pIC50 greater than or equal to 5?
Ans: NO

Q: Has Cc1cc(N)c2ccccc2[n+]1CCCCCCCCCCCC[n+]1c(C)cc(N)c2ccccc21 [Compound 1d] a recorded pIC50 greater than or equal to 5?
Ans: YES

Q: Has Cc1cc(N)c2ccccc2[n+]1CCCCCC[n+]1c(C)cc(N)c2ccccc21 [Compound 1a] a recorded pIC50 greater than or equal to 5?
Ans: NO
